Reference source for all entries: patent US8486962B2

# System: A Terreus 49
# ASSAY: MIC, YAG medium, A Terreus 49
# Format: cell-based, Aspergillus terreus
# CONDITIONS: Aspergillus terreus; YAG medium; read-out: MIC A Terreus 49
Mark true only when MIC stays strictly below 0.05 µg/mL. Values equal to the cut-off are false.

{"STRUCTURE_AS_SMILES": "CN1CCc2cc(NC(=O)C(=O)c3c(-c4ccccc4)cc4ccccn34)ccc21", "MEASURED_ON": "A Terreus 49", "CAT": "true"}
{"STRUCTURE_AS_SMILES": "O=C(Nc1ccc(Cl)cc1Cl)C(=O)c1c(-c2ccccc2)cc2ccccn12", "MEASURED_ON": "A Terreus 49", "CAT": "true"}
{"STRUCTURE_AS_SMILES": "COc1ccc(NC(=O)C(=O)c2c(-c3ccccc3)cc3ccccn23)cc1C(C)=O", "MEASURED_ON": "A Terreus 49", "CAT": "true"}
{"STRUCTURE_AS_SMILES": "O=C(Nc1ccc(-c2nccs2)cc1)C(=O)c1c(-c2ccccc2)cc2ccccn12", "MEASURED_ON": "A Terreus 49", "CAT": "true"}
{"STRUCTURE_AS_SMILES": "N#Cc1ccc(NC(=O)C(=O)c2c(-c3ccccc3)cc3ccccn23)cc1", "MEASURED_ON": "A Terreus 49", "CAT": "false"}

# TODO verify MIC < 0.05 µg/mL strictly for this molecule: `O=C(O)COc1cccc(NC(=O)C(=O)c2c(-c3ccccc3)cc3ccccn23)c1` false

# TODO verify MIC < 0.05 µg/mL strictly for this molecule: `CN(C)c1ccc(NC(=O)C(=O)c2c(-c3ccccc3)cc3ccccn23)cc1` true

----------
// Candida glabrata MIC records
// note: answer is a bare numeric in µg/mL

{"STRUCTURE_AS_SMILES": "O=C(Nc1ccc(C(F)(F)F)cc1)C(=O)c1c(-c2cccnc2)cc2ccccn12", "MIC (µg/mL)": 25}
{"STRUCTURE_AS_SMILES": "O=C(Nc1ccc(-c2nnn[nH]2)cc1)C(=O)c1c(-c2ccccc2)cc2ccccn12", "MIC (µg/mL)": 50}

Okay, next one:
Recorded MIC for `O=C1CCN(c2ccc(NC(=O)C(=O)c3c(-c4ccccc4)cc4ccccn34)cc2)CC1` with Candida glabrata, please? 50

----------
# Test system: A Terreus 49
# ASSAY: MIC, YAG medium, A Terreus 49
# Assay type: cell-based, Aspergillus terreus
# CONDITIONS: Aspergillus terreus; YAG medium; read-out: MIC A Terreus 49
// map MIC onto a label; ranges bottom end (below 0.01 µg/mL), midrange (0.01 µg/mL to below 0.06 µg/mL), top end (0.06 µg/mL or more)

{"COMPOUND": "COC(=O)c1ccc(NC(=O)C(=O)c2c(-c3ccccc3)cc3ccccn23)cc1 [Example 140]", "MEASURED_ON": "A Terreus 49", "CAT": "midrange"}

Exam item: assign CC(O)c1ccc(NC(=O)C(=O)c2c(-c3ccccc3)cc3ccccn23)cc1 (centres unmarked) [Example 255] to the correct category. top end

Exam item: assign COC(=O)c1cccc(NC(=O)C(=O)c2c(-c3ccccc3)cc3ccccn23)c1 [Example 141] to the correct category. midrange

Exam item: assign Cc1ccc(NC(=O)C(=O)c2c(-c3ccc(F)cc3)cc3ccccn23)cc1 [Example 156] to the correct category. midrange

Exam item: assign Cc1cccc(NC(=O)C(=O)c2c(-c3ccccc3)cc3ccccn23)c1 [Example 206] to the correct category. bottom end

----------
# Tested on: A Terreus 49
# ASSAY: MIC, YAG medium, A Terreus 49
# Assay type: cell-based, Aspergillus terreus
# CONDITIONS: Aspergillus terreus; YAG medium; read-out: MIC A Terreus 49
# Lookup of reported MIC keyed by entry
// note: answer is a bare numeric in µg/mL

Worked cases, answers included:
{"MOLECULE": "Cc1ccc(NC(=O)C(=O)c2c(-c3cccnc3)cc3ccccn23)cc1 [Example 173]", "VALUE_UNIT": "µg/mL", "MIC": 0.12}
{"MOLECULE": "Cc1ccc(NC(=O)C(=O)c2c(-c3ccccc3)cc3ccccn23)c(C)c1C [Example 259]", "VALUE_UNIT": "µg/mL", "MIC": 0.004}
{"MOLECULE": "Cc1cc(NC(=O)C(=O)c2c(-c3ccccc3)cc3ccccn23)ccc1N(C)C [Example 273]", "VALUE_UNIT": "µg/mL", "MIC": 0.002}
{"MOLECULE": "COc1ccc(NC(=O)C(=O)c2c(-c3ccccc3C)cc3ccccn23)cc1 [Example 232]", "VALUE_UNIT": "µg/mL", "MIC": 0.015}
{"MOLECULE": "COc1ccccc1NC(=O)C(=O)c1c(-c2ccccc2)cc2ccccn12 [Example 137]", "VALUE_UNIT": "µg/mL", "MIC": 0.06}

Okay, next one:
Recorded MIC for COc1ccc(NC(=O)C(=O)c2c(-c3ccccc3)cc3ccccn23)cn1 [Example 146] with A Terreus 49, please? 0.03

----------
# Test system: Candida albicans
ENDPOINT_LABEL: MIC (µg/mL)
// note: answer is a bare numeric in µg/mL

Worked cases, answers included:
{"COMPOUND": "COCCNC(=O)C(=O)c1c(-c2cccnc2)cc2ccccn12", "MEASURED_ON": "Candida albicans", "MIC, µg/mL": 50}
{"COMPOUND": "CN(C)c1ccc(NC(=O)C(=O)c2c(-c3ccccc3)cc3ccccn23)cc1C(=O)O", "MEASURED_ON": "Candida albicans", "MIC, µg/mL": 3.1}
{"COMPOUND": "COC(=O)C1CCCN1c1ccc(NC(=O)C(=O)c2c(-c3ccccc3)cc3ccccn23)cc1 (stereo not shown)", "MEASURED_ON": "Candida albicans", "MIC, µg/mL": 25}
{"COMPOUND": "O=C1CCN(c2ccc(NC(=O)C(=O)c3c(-c4ccccc4)cc4ccccn34)cc2)CC1", "MEASURED_ON": "Candida albicans", "MIC, µg/mL": 1.6}
{"COMPOUND": "O=C(Nc1ccc(-c2nnn[nH]2)cc1)C(=O)c1c(-c2ccccc2)cc2ccccn12", "MEASURED_ON": "Candida albicans", "MIC, µg/mL": 3.1}

Okay, next one:
Could you tell me which MIC is on file for `O=C(Nc1ccc(Nc2ccccn2)cc1)C(=O)c1c(-c2ccccc2)cc2ccccn12` ? 6.25

----------
# System: A Terreus 49
# ASSAY: MIC, YAG medium, A Terreus 49
# Type: cell-based, Aspergillus terreus
# CONDITIONS: Aspergillus terreus; YAG medium; read-out: MIC A Terreus 49
# Method: Measurement of Minimum Inhibitory Concentrations (MICs) Between 1 and 5 mgs of compound were accurately weighed out into a sterile Eppendorf tube. The compound was dissolved in DMSO to give a solution containing 5 mg/ml. […] This produced MIC plates with a drug range 50-0.05 mg/L and organism inocula of 1-2×10^4 cfu/ml for Aspergillus spp and other filamentous fungi and 1-2×10^3 cfu/ml for yeasts. […] Growth was assessed by monitoring the optical density at 485 nm for each well. […]
Mark YES only when MIC stays strictly below 0.4 µg/mL. Values equal to the cut-off are NO.

{"COMPOUND": "O=C(Nc1ccc(N2CCSCC2)cc1)C(=O)c1c(-c2ccccc2)cc2ccccn12 [Example 258]", "CAT": "YES"}
{"COMPOUND": "O=C(Nc1ccc(N2CCOCC2)cc1)C(=O)c1c(-c2ccccc2)cc2ccccn12 [Example 251]", "CAT": "YES"}
{"COMPOUND": "C=CCc1c(F)ccc(NC(=O)C(=O)c2c(-c3ccccc3)cc3ccccn23)c1OC [Example 254]", "CAT": "YES"}
{"COMPOUND": "O=C(Nc1ccc(Nc2ncccn2)cc1)C(=O)c1c(-c2ccccc2)cc2ccccn12 [Example 276]", "CAT": "YES"}
{"COMPOUND": "CCOC(=O)C(C)(C)NC(=O)C(=O)c1c(-c2ccccc2)cc2ccccn12 [Example 248]", "CAT": "NO"}

# TODO verify MIC < 0.4 µg/mL strictly for this compound: CN(C)c1ccc(NC(=O)C(=O)c2c(-c3ccccc3)cc3ccccn23)cc1C(=O)O [Example 274] NO

# TODO verify MIC < 0.4 µg/mL strictly for this compound: O=C(Nc1cc(Cl)cc(Cl)c1)C(=O)c1c(-c2ccccc2)cc2ccccn12 [Example 220] YES

----------
# Test system: Candida parapsilosis
ENDPOINT_LABEL: MIC (µg/mL)
// note: answer is a bare numeric in µg/mL

Worked cases, answers included:
{"STRUCTURE_AS_SMILES": "O=C(Nc1ccc(-c2nnn[nH]2)cc1)C(=O)c1c(-c2ccccc2)cc2ccccn12", "MIC [µg/mL]": 50}
{"STRUCTURE_AS_SMILES": "CN(C)c1ccc(NC(=O)C(=O)c2c(-c3ccccc3)cc3ccccn23)cc1C(=O)O", "MIC [µg/mL]": 50}
{"STRUCTURE_AS_SMILES": "COCCNC(=O)C(=O)c1c(-c2cccnc2)cc2ccccn12", "MIC [µg/mL]": 50}
{"STRUCTURE_AS_SMILES": "O=C1CCN(c2ccc(NC(=O)C(=O)c3c(-c4ccccc4)cc4ccccn34)cc2)CC1", "MIC [µg/mL]": 25}

Okay, next one:
Recorded MIC for `O=C(Nc1ccc(Nc2ccccn2)cc1)C(=O)c1c(-c2ccccc2)cc2ccccn12` with Candida parapsilosis, please? 50
